- System: HCI11 (cells of an ER-positive luminal breast cancer xenograft);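 note: PDX cells carrying CMV promoter-driven luciferase, viability read as total photon flux per second by IVIS imaging following D-luciferin, vehicle control 0.1% DMSO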
- TEST_DETAILS: cell viability (% of vehicle); higher = less cytotoxic
- EXPERIMENTAL_CONTEXT: 10 µM; 72 h
Documented cell viability across a set of compounds
OUTCOME_MEASURE: cell viability

COMPOUND: CO[C@H]1C(=O)[C@]2(C)[C@@H](OC)C[C@H]3OC[C@@]3(OC(C)=O)[C@H]2[C@H](OC(=O)c2ccccc2)[C@]2(O)C[C@H](OC(=O)[C@H](O)[C@@H](NC(=O)OC(C)(C)C)c3ccccc3)C(C)=C1C2(C)C
SUBJECT_OF_TEST: HCI11
OUTCOME_MEASURE: cell viability
MEASUREMENT: 89.2
//
COMPOUND: Cc1ccc(-n2nc(C(C)(C)C)cc2NC(=O)Nc2ccc(OCCN3CCOCC3)c3ccccc23)cc1
SUBJECT_OF_TEST: HCI11
OUTCOME_MEASURE: cell viability
MEASUREMENT: 71.1
//
COMPOUND: COc1ccc(C=CC(=O)Nc2ccccc2C(=O)O)cc1OC
SUBJECT_OF_TEST: HCI11
OUTCOME_MEASURE: cell viability
MEASUREMENT: 87.9
//
COMPOUND: CCN(Cc1ccncc1)C(=O)C(CO)c1ccccc1 (configuration not stated) [Tropicamide]
SUBJECT_OF_TEST: HCI11
OUTCOME_MEASURE: cell viability
MEASUREMENT: 101
//
COMPOUND: CNCC(O)C(O)C(O)C(O)CO.Cc1c(Nc2ncccc2C(=O)O)cccc1C(F)(F)F
SUBJECT_OF_TEST: HCI11
OUTCOME_MEASURE: cell viability
MEASUREMENT: 103
//
COMPOUND: CC1OC(n2cc(F)c(=O)[nH]c2=O)C(O)C1O (configuration not stated)
SUBJECT_OF_TEST: HCI11
OUTCOME_MEASURE: cell viability
MEASUREMENT: 110
//
COMPOUND: CCN(CCO)CCCOc1ccc2c(Nc3cc(CC(=O)Nc4cccc(F)c4)[nH]n3)ncnc2c1
SUBJECT_OF_TEST: HCI11
OUTCOME_MEASURE: cell viability
MEASUREMENT: 91.5
//
COMPOUND: CNCC(O)c1ccc(O)c(O)c1 (configuration not stated)
SUBJECT_OF_TEST: HCI11
OUTCOME_MEASURE: cell viability
MEASUREMENT: 110
//
COMPOUND: C=CC(=O)Nc1cccc(Nc2nc(Nc3ccc(N4CCN(C(C)=O)CC4)cc3OC)ncc2C(F)(F)F)c1
SUBJECT_OF_TEST: HCI11
OUTCOME_MEASURE: cell viability
MEASUREMENT: 94
//
COMPOUND: O=C([O-])Cc1ccccc1Nc1c(Cl)cccc1Cl.[K+]
SUBJECT_OF_TEST: HCI11
OUTCOME_MEASURE: cell viability
MEASUREMENT: 100
//
COMPOUND: COc1ccc2c(c1)c(CC(=O)OCC(=O)O)c(C)n2C(=O)c1ccc(Cl)cc1
SUBJECT_OF_TEST: HCI11
OUTCOME_MEASURE: cell viability
MEASUREMENT: 97.4
//
COMPOUND: COC(=O)c1ccc2c(c1)NC(=O)C2=C(Nc1ccc(N(C)C(=O)CN2CCN(C)CC2)cc1)c1ccccc1
SUBJECT_OF_TEST: HCI11
OUTCOME_MEASURE: cell viability
MEASUREMENT: 59
//
COMPOUND: C#Cc1cccc(Nc2ncnc3cc(OC)c(OCCCCCCC(=O)NO)cc23)c1
SUBJECT_OF_TEST: HCI11
OUTCOME_MEASURE: cell viability
MEASUREMENT: 4.55
//
COMPOUND: NS(=O)(=O)Cc1noc2ccccc12 [Zonisamide]
SUBJECT_OF_TEST: HCI11
OUTCOME_MEASURE: cell viability
MEASUREMENT: 108
//
COMPOUND: S=c1nc[nH]c2nc[nH]c12
SUBJECT_OF_TEST: HCI11
OUTCOME_MEASURE: cell viability
MEASUREMENT: 81.6
//
COMPOUND: CC(C)CC(NC(=O)C(NC(=O)c1cccc(-c2ccccc2)n1)C(C)O)B(O)O (configuration not stated)
SUBJECT_OF_TEST: HCI11
OUTCOME_MEASURE: cell viability
MEASUREMENT: 171
//
COMPOUND: CNC(=O)c1cc(Oc2ccc(NC(=O)Nc3ccc(Cl)c(C(F)(F)F)c3)c(F)c2)ccn1.Cl [Regorafenib hydrochloride]
SUBJECT_OF_TEST: HCI11
OUTCOME_MEASURE: cell viability
MEASUREMENT: 65.5
//
COMPOUND: COC(c1ccccc1)(c1ccccc1)C(Oc1nc(C)cc(C)n1)C(=O)O (configuration not stated)
SUBJECT_OF_TEST: HCI11
OUTCOME_MEASURE: cell viability
MEASUREMENT: 84
//
COMPOUND: CCOc1nc2cccc(C(=O)O)c2n1Cc1ccc(-c2ccccc2-c2nn[nH]n2)cc1
SUBJECT_OF_TEST: HCI11
OUTCOME_MEASURE: cell viability
MEASUREMENT: 101
//
COMPOUND: CC(C)NCC(O)c1ccc(O)c(O)c1.Cl (configuration not stated) [Isoprenaline HCl]
SUBJECT_OF_TEST: HCI11
OUTCOME_MEASURE: cell viability
MEASUREMENT: 90.3
//
COMPOUND: CC(C)OC(=O)C(C(=O)OC(C)C)=C1SC=CS1 [Malotilate]
SUBJECT_OF_TEST: HCI11
OUTCOME_MEASURE: cell viability
MEASUREMENT: 90.9
//
COMPOUND: COC(=O)Nc1nc2ccc(Sc3ccccc3)cc2[nH]1
SUBJECT_OF_TEST: HCI11
OUTCOME_MEASURE: cell viability
MEASUREMENT: 129
//
COMPOUND: Cn1c(=O)c2c(ncn2CC(O)CO)n(C)c1=O (configuration not stated)
SUBJECT_OF_TEST: HCI11
OUTCOME_MEASURE: cell viability
MEASUREMENT: 114
//
COMPOUND: CC(C)C(=O)Nc1ccc([N+](=O)[O-])c(C(F)(F)F)c1 [Flutamide]
SUBJECT_OF_TEST: HCI11
OUTCOME_MEASURE: cell viability
MEASUREMENT: 125
//
COMPOUND: O=C(O)c1cccnc1
SUBJECT_OF_TEST: HCI11
OUTCOME_MEASURE: cell viability
MEASUREMENT: 87.3
//
COMPOUND: CC(C)(C)NCC(O)c1ccc(O)c(CO)c1.O=S(=O)(O)O (configuration not stated) [Salbutamol Sulfate]
SUBJECT_OF_TEST: HCI11
OUTCOME_MEASURE: cell viability
MEASUREMENT: 90.5
//
COMPOUND: CNCc1ccc(-c2[nH]c3cc(F)cc4c3c2CCNC4=O)cc1.O=P(O)(O)O
SUBJECT_OF_TEST: HCI11
OUTCOME_MEASURE: cell viability
MEASUREMENT: 85.9
//
COMPOUND: Cc1c(O)cccc1C(=O)NC(CSc1ccccc1)C(O)CN1CC2CCCCC2CC1C(=O)NC(C)(C)C (configuration not stated)
SUBJECT_OF_TEST: HCI11
OUTCOME_MEASURE: cell viability
MEASUREMENT: 97.2
//
COMPOUND: NC(CC(=O)N1CCn2c(nnc2C(F)(F)F)C1)Cc1cc(F)c(F)cc1F.O.O=P(=O)OO.[HH] (configuration not stated) [Sitagliptin phosphate monohydrate]
SUBJECT_OF_TEST: HCI11
OUTCOME_MEASURE: cell viability
MEASUREMENT: 131
//
COMPOUND: Clc1ccccc1C(c1ccccc1)(c1ccccc1)n1ccnc1
SUBJECT_OF_TEST: HCI11
OUTCOME_MEASURE: cell viability
MEASUREMENT: 95.1
//
COMPOUND: CCCN(CCC)S(=O)(=O)c1ccc(C(=O)O)cc1
SUBJECT_OF_TEST: HCI11
OUTCOME_MEASURE: cell viability
MEASUREMENT: 94.6
//
COMPOUND: C[C@@H]1C[C@H]2[C@H]3CCC4=CC(=O)C=C[C@]4(C)[C@@]3(F)[C@@H](O)C[C@]2(C)[C@@]1(O)C(=O)CO
SUBJECT_OF_TEST: HCI11
OUTCOME_MEASURE: cell viability
MEASUREMENT: 114
